assay: In vitro enzyme assay to detect hydrolysis of chlorophenol red-beta-D-[…] directly proportional to the number of Toxoplasma stably expressing beta-galactosidase; type: functional, organism-based, Toxoplasma gondii; set-up: scale not given: in the data most compounds retested in dose-response had high values; conditions: 50 µM
The campaign covered roughly 85,000 compounds. About 440 (0.52%) showed an effect of 50% or more. Shown is part of a subset that was picked to be rich in strong results.
QUANTITY NAME: Percent Effect (%)
Answers are plain numbers, in %.

Cc1ccc(CN2CCC(N)C2=O)cc1 (centres undefined)    0.3266

Look at each compound and report its Percent Effect.
1. O=C1CCCN1CCCNCc1cccs1
2. CCSc1cc(C(=O)N2CC[S+]([O-])CC2)ccn1
3. OCC1(O)CCN(Cc2cc3ccccc3s2)C1 (centres undefined)

1: 4.585; 2: 18.59; 3: 15.65

Look at each compound and report its Percent Effect.
1. COCCN(CC(=O)N(C)C)c1ncccn1
2. C[C@@H]1CNC[C@H]1C(N)=O
3. CC1(C)CNC(=O)c2nc(CCN3CCCC3)[nH]c2C1
4. CN1CCCCC1CCC(=O)NCCCn1cccn1 (centres undefined)
5. CCCN(CCOC)CC(=O)N(C)C
6. COc1cccc2c1OCC(CNS(C)(=O)=O)C2 (centres undefined)
7. COc1ccnc(N2CC[S+]([O-])CC2)n1

[1.212, -3.858, -0.3782, -6.664, 8.072, 14.05, -6.202]

Look at each compound and report its Percent Effect.
1. COCCNS(=O)(=O)c1ccc(CN)cc1
2. CCN1CCCN(c2ccccn2)CC1
3. NC1CCN(Cc2ccccc2)C1=O (centres undefined)

[-7.365, 3.404, 57.3]

Data provenance: ChEMBL document CHEMBL3988442
